B1: CIB1 (parent)
chain: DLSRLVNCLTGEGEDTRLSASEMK

- Variants of: B1
- Protocol Details: protein stability index of a GFP-peptide fusion (GPS, HEK-293T) (PSI 1-6); higher = more stable;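 further: lentivirally expressed fusions sorted by FACS into six bins by GFP to DsRed ratio, PSI derived from sequencing read proportions per bin multiplied by bin number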
- Test Settings: c terminus: a fixed tail appended
Where protein stability index equals or exceeds 3, the correct label is y; where it does not, the label is n.

1) DLSRLVNCLTGEGEETRLSASEMK    y
2) DLSRLVNCYTGEGEDTRLSASEMK    y
3) DLSRLVNSLTGEGEDTRLSASEMK    y
4) DLSRLNNCLTGEGEDTRLSASEMK    y
5) DLSRLVNCLTGEGEDTRLSASEMS    n

Then there is this variant:
Can DLSRLVNCLTWEGEDTRLSASEMK be said to have protein stability index at or above 3?
n
